The reported measurements were obtained from paper PMC4139341.

targetSystem: BACE-1 (Homo sapiens)
Sequence (P56817 46-501): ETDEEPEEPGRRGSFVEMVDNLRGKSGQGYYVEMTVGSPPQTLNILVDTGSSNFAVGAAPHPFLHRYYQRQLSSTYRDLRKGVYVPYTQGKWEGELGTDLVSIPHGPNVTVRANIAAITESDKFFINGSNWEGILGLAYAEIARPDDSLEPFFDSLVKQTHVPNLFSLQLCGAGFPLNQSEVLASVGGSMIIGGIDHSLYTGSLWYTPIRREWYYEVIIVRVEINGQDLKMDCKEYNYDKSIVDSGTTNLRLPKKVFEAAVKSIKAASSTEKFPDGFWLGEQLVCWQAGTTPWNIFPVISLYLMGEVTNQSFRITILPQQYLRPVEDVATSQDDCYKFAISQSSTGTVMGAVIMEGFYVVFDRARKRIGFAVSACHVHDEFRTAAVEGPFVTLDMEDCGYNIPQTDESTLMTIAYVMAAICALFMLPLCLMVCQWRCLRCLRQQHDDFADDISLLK
assayDetails: biochemical
experimentalConditions: IC50 for BACE-1, 2 h at 37°C
Method: BACE-1 activity was studied in accordance with the manufacturer's instructions (Sigma). […] Negative control included all the reactants except BACE-1 enzyme. After 2 h, fluorescence emission was measured at 405 nm upon excitation at 320 nm. Lineweaver-Burk double reciprocal plot was plotted in order to determine the Km. […] The Ki was calculated directly from IC50 value using Cheng-Prussoffs classical equation [45]. [drawing 1] […]
reportedProperty: IC50

Qu. Give IC50 for CNCCCC1c2ccccc2C=Cc2ccccc21 [protriptyline]
Ans. ~25 µM
